test: compound fluorescence in toxin protease inhibitor counterscreen, primary screen, artefact control for toxin protease inhibitor project, biochemical, multiplex microsphere, HTS (AID 624483); conditions: compound autofluorescence counterscreen, microsphere flow cytometry
The campaign covered roughly 360,000 compounds. About 11,000 (3.1%) were called active. Inconclusive results (about 2%) are left out. Cut-off read from the data, not from the text of the source: active = fluorescence intensity above about 16000; inconclusive = no clear call, values can overlap the other calls; inactive = below that. This excerpt belongs to a sample that is enriched for actives.
Pick from active, inactive when you respond.

Asked: What outcome does the record of this test show for COC(=O)c1ccc(NC(=O)c2ccccc2NS(=O)(=O)c2ccccc2)cc1 ?
Given back: active

Asked: Then what about the molecule COc1ccc(C(C#N)N2N=C(C)CC2(C)C)cc1 (stereo not drawn) ?
Given back: inactive

Asked: Same thing, different molecule: CCCOc1ccccc1C1CC(=O)Nc2cc3c(cc21)OCO3 (stereo not drawn)
Given back: inactive

Asked: O=c1[nH]cccc1-c1nc2ccccc2n1Cc1ccc(Cl)cc1 , same question.
Given back: inactive

Asked: Cool, now O=C(COC(=O)c1ncc(Cl)c(Cl)c1Cl)NNC(=O)c1ccccc1
Given back: inactive

Asked: Further, for COc1ccccc1CSc1ncc(-c2ccc([N+](=O)[O-])cc2)[nH]1 ?
Given back: inactive

Asked: What about this molecule? COCCOC(=O)C1=C(C)NC(=O)CC1c1cc2c(cc1Br)OCO2 (stereo not drawn)
Given back: active

Asked: Please answer likewise for COC(=O)c1ccccc1NS(=O)(=O)c1ccc2[nH]c(=O)[nH]c2c1
Given back: inactive

Asked: Same again, this time with C=CCn1c(SCc2ccc(Cl)c(Cl)c2)nnc1C(CO)NC(=O)c1ccc(OC)cc1 (stereo not drawn)
Given back: inactive

Asked: Item: COCCOC(=O)C1=C(C)NC(=O)NC1c1cc2c(cc1Br)OCO2 (stereo not drawn)
Given back: inactive

Asked: Proceed to C=CCn1c(SCC(=O)c2ccc(Br)cc2)nnc1C(C)NC(=O)Cc1ccc(OC)cc1 (stereo not drawn)
Given back: active

Asked: How about O=C(COc1ccc2c(C(F)(F)F)cc(=O)oc2c1)Nc1ccc2c(c1)OCCO2 ?
Given back: active

Asked: Next entry: COc1ccc(C(=O)NCc2nnc(SCCOc3ccccc3)n2C)cc1
Given back: inactive

* * *

assay: compound fluorescence in toxin protease inhibitor counterscreen, primary screen, artefact control for toxin protease inhibitor project, biochemical, multiplex microsphere, HTS (AID 624483); details: compound autofluorescence counterscreen, microsphere flow cytometry
About 11,000 (3.1%) of roughly 360,000 compounds were called active. Roughly 2% stayed inconclusive and do not appear here. No stated cut-off is given here; in the data, active means fluorescence intensity above about 16000; inconclusive means no clear call, values can overlap the other calls; inactive means below that. The sample as a whole holds a higher share of actives than the screen did.
Tick one outcome: active, inactive

Asked: In this assay, the call recorded for COC(=O)Cc1cc(=O)oc2c(C)c(O)ccc12 was what?
Given back: active

Asked: Likewise for CC(=O)c1cc2c(cc1NC(=O)CN1CCCCCC1)OCO2 ?
Given back: inactive

Asked: Again, but for CCN(CC)C(=O)CSc1nnc(-c2ccc(S(=O)(=O)NCc3ccccc3Cl)cc2)o1
Given back: active

Asked: Another compound to check: C#CCN(C[C@H]1[C@H](OC(=O)NC2CCCC2)[C@H](OC(=O)NC2CCCC2)C[C@H]2C(=O)N(c3ccccc3)C(=O)[C@@H]12)S(=O)(=O)c1ccc(C)cc1
Given back: inactive

Asked: Thanks! And COc1ccc(C2/C=C\CN(S(=O)(=O)c3cccs3)CC(=O)N2Cc2ccc(F)cc2)cc1 (stereo unspecified) ?
Given back: inactive

Asked: Please give the result for N#Cc1ccc(C(=O)Nc2nc(-c3cccs3)c(C(=O)C(F)(F)F)s2)cc1 too.
Given back: inactive

Asked: Param item: Cc1noc(C)c1-c1ccc(C(=O)NCc2ccncc2)c2occc12
Given back: inactive

Asked: Same lookup for O=C1CCC(C(=O)N2CCC(O)(c3ccccc3)CC2)CN1CCc1ccccc1 (stereo unspecified) , please.
Given back: inactive

Asked: Subsequent entry: COC(=O)CCCCC1=CCC2C(=O)C=C(O)C2C1 (stereo unspecified)
Given back: inactive

Asked: Try this compound too: O=c1c2ccccc2nc(-c2ccc(Cl)cc2Cl)n1-c1ccncc1
Given back: active

Asked: Also CCOC(=O)CSc1ccccn1 ?
Given back: inactive

Asked: Then what about the compound O=S1(=O)CC(N2CCN(CCO)CC2)CN1Cc1cn(Cc2ccc(Cl)cc2)nn1 (stereo unspecified) ?
Given back: inactive

Asked: # repeat for COc1cccc(C(=O)OCc2cc(=O)oc3c(C)c(C)ccc23)c1OC
Given back: inactive

Asked: Now try CCc1nc2ccc(C(=O)N(C)Cc3ccco3)cn2c1N(C)C(=O)Cc1ccccc1 .
Given back: inactive

Asked: Now consider O=C(NCc1ccco1)c1cccc(-c2ccc3nncn3c2)c1 and answer again.
Given back: inactive

Asked: Also need CCc1sc(C(=O)N2CCN(CC(=O)Nc3cccc(F)c3)CC2)cc1C , thanks.
Given back: inactive

Asked: Next up: CC(C)(C)CC(=O)Nc1nc(C(N)Cc2ccc(C(F)(F)F)cc2)cs1 (stereo unspecified)
Given back: inactive

Asked: Further, for CN(C(=O)COC(=O)CCCc1c[nH]c2ccccc12)c1c(N)n(Cc2ccccc2)c(=O)[nH]c1=O ?
Given back: inactive

Asked: Could you do the same for COc1ccc(Sc2ccc(NC(=O)c3cccc(Cl)c3)cc2C#N)cc1 , please?
Given back: inactive

Asked: Entry to check: CC(=O)Nc1c(-c2ccc(C)cc2)nc2ccc(Cl)cn12
Given back: inactive

Asked: And the next one, CC(=O)C1=C(C)NC(=O)NC1c1ccc2c(c1)OCO2 (stereo unspecified) ?
Given back: inactive

Asked: Next entry: CCCc1cc(=O)oc2c(C)c(OCC(=O)Nc3ccccn3)ccc12
Given back: inactive

Asked: Then what about the compound CCOC(=O)C1C(c2ccc(OC)c(OC)c2)c2c([nH][nH]c2=O)CC1(C)O (stereo unspecified) ?
Given back: inactive

Asked: What do we get for CCOc1ccc(NC(=O)N(CC(C)C)CC(C)C)cc1 ?
Given back: active

Asked: Input S=c1[nH]nc(CSCc2ccc(Cl)cc2Cl)n1-c1ccccc1
Given back: active

Asked: Lookup O=[N+]([O-])c1ccc(CN2CC(N3CCC(c4ccccc4)CC3)CS2(=O)=O)cc1 (stereo unspecified)
Given back: inactive

Asked: Now consider CN(C)c1nc(N)nc(CSc2ccccn2)n1 .
Given back: active

Asked: Next up: CS(=O)(=O)c1cccc(-c2ccc3nncn3c2)c1
Given back: inactive

Asked: Please give the result for O=C(NC1CCCCC1)C1CC(=O)N(CCc2ccccc2)C1 (stereo unspecified) too.
Given back: active

Asked: Param item: O=C(Nc1cccc(Cc2ccccc2)c1)Nc1ccc2nc([C@@H]3O[C@H](CO)[C@@H](O)[C@H](O)[C@H]3O)[nH]c2c1
Given back: inactive

Asked: Cool, now COc1ccc(-n2nnnc2SCc2nc(N)nc(N3CCOCC3)n2)cc1
Given back: inactive

Asked: Please answer likewise for CN(C)c1nc(N)nc(CSc2nnnn2-c2cccc3ccccc23)n1
Given back: active

Asked: Further, for CCn1c(CN2C(=O)CSc3ccccc32)n[nH]c1=S ?
Given back: inactive

Asked: Next entry: COc1cccc(CNc2nc(NCc3cccs3)nc3ccsc23)c1
Given back: inactive

Asked: Also CC1(C(=O)NS(=O)(=O)C2CC2)CCCN(C(=O)CSc2ccccc2)C1 (stereo unspecified) ?
Given back: inactive

Asked: Similarly, Cc1ccc(NCc2n[nH]c(=S)n2-c2ccccc2)cc1Cl ?
Given back: inactive

Asked: Same question for Nc1nc(CSc2nnnn2-c2ccccc2)nc(Nc2ccccc2)n1 please.
Given back: inactive

Asked: How about this compound: CCOc1ccc(NC(=O)N(CCC(C)C)C(C)c2ccco2)cc1 (stereo unspecified)
Given back: inactive

Asked: Repeat for the following compound: COc1ccc(-c2cc3ccc(OCc4nn[nH]n4)cc3oc2=O)cc1
Given back: active

Asked: And what about the compound Cc1noc(C)c1COc1ccc2ccc(=O)oc2c1 ?
Given back: inactive

Asked: Request: CC(C)(C)c1ccc(S(=O)(=O)NC(=O)C2(C)CCN2C(=O)CC2CC2)cc1 (stereo unspecified)
Given back: inactive
